Below are Ki measurements against 5-hydroxytryptamine receptor 2B (Homo sapiens, UniProt P41595) drawn from the literature.
Sequence (P41595 whole entry): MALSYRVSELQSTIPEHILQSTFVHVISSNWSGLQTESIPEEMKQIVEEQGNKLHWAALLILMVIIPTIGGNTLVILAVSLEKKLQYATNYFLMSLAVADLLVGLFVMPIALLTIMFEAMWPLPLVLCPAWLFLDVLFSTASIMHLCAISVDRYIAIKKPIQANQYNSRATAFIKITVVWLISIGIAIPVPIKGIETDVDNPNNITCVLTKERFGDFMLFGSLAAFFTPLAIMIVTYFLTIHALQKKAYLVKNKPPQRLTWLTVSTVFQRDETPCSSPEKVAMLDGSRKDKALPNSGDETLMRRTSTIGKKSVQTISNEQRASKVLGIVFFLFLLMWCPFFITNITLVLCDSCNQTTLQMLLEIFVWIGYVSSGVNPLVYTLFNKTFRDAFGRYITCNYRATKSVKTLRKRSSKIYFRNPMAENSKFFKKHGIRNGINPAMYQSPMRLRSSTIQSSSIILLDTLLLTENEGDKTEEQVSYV
Classes by Ki: low = under 20 nM, medium = from 20 nM up to 200 nM, high = 200 nM and over

{"molecule": "COc1ccc(N2CC=C(c3ccc(Cl)c(F)c3)C2=O)cc1OCCN1CCC(C)CC1", "categoryLabel": "high"}
{"molecule": "COc1ccc(N2CCC(c3ccc(Cl)c(Cl)c3)C2=O)cc1OCCN1CCC(C(C)C)CC1 (stereo not given)", "categoryLabel": "high"}
{"molecule": "COc1ccc(-c2ccccc2)cc1C(=O)CCCCN1CCC2(CC1)NC(=O)NC2=O", "categoryLabel": "low"}
{"molecule": "Cl.O=S(=O)(c1cccc(Cl)c1)c1n[nH]c2ccc(NC3CCNCC3)cc12", "categoryLabel": "medium"}
{"molecule": "Cc1ccccc1NC(=O)N1OCC2COc3ccccc3C21 (stereo not given)", "categoryLabel": "high"}
{"molecule": "NC(N)=NC(=O)c1ccc2c(c1)C(O)c1ccc(Cl)cc1-2 (stereo not given)", "categoryLabel": "low"}
{"molecule": "COc1cc2c(cc1OCCN1CCCCC1)N(C(=O)/C=C/c1ccccc1Cl)CC2", "categoryLabel": "medium"}
{"molecule": "CCc1cccc2c1-c1ccc(C(=O)N=C(N)N)cc1C2O (stereo not given)", "categoryLabel": "low"}
{"molecule": "COc1ccc(N2CCN(c3ccccc3)C2=O)cc1OCCN1CCCCC1", "categoryLabel": "high"}
{"molecule": "CN(C)[C@@H]1CCN(c2ccc3[nH]nc(S(=O)(=O)c4cccc5ccccc45)c3c2)C1", "categoryLabel": "high"}
{"molecule": "Cc1ncccc1Oc1ccc(NC(=O)N2CCc3c2ccc(Cl)c3Cl)cn1", "categoryLabel": "high"}
{"molecule": "CC(C)n1nc2c(c1-c1ccc(Cl)cc1Cl)CCNCC2", "categoryLabel": "medium"}
{"molecule": "CC(C)n1nc(S(=O)(=O)c2cccc3ccccc23)c2cc(N3CC[C@@H](N)C3)ccc21", "categoryLabel": "medium"}
{"molecule": "CC(C)n1nc2c(c1-c1ccccc1)CCNCC2", "categoryLabel": "low"}
{"molecule": "c1ccc(-c2c3c(nn2C2CCC2)CCNCC3)cc1", "categoryLabel": "low"}

----------
pKi: −log10 of the molar value.
Below are pKi measurements against 5-hydroxytryptamine receptor 2B (Homo sapiens) drawn from the literature.

{"molecule": "COc1ccc(N2CC=C(c3cccc(C(F)(F)F)c3)C2=O)cc1OCCN1CCCCC1", "targetUnderTest": "5-hydroxytryptamine receptor 2B (Homo sapiens)", "pKi": "< 6.10"}
{"molecule": "CC1COCc2sc(NC(=S)Nc3ccccc3)c(C(=O)OC(C)(C)C)c21 (centres undefined)", "targetUnderTest": "5-hydroxytryptamine receptor 2B (Homo sapiens)", "pKi": "< 5.00"}
{"molecule": "CCOc1cc(CN2CCC(Nc3nc4cc(Cl)c(S(N)(=O)=O)cc4o3)CC2)ccc1F", "targetUnderTest": "5-hydroxytryptamine receptor 2B (Homo sapiens)", "pKi": "< 5.00"}
{"molecule": "COc1ccc(N2Cc3cc(Cl)cc(Cl)c3C2=O)cc1OCCN1CCOCC1", "targetUnderTest": "5-hydroxytryptamine receptor 2B (Homo sapiens)", "pKi": "< 6.00"}
